- Test system: yeast Saccharomyces cerevisiae X2180-1B
- experiment_summary: Fungicidal activity / MIC at 50° C. versus 30° C., yeast survival in YEPD broth pH 3.4
- Assay type: cell-based
- test_context: Saccharomyces cerevisiae; minimum inhibitory concentration, 50° C.; read-out: MIC50
Attribute: MIC
Unit mM implied. Number only.

Fill blank: measured MIC of the compound CCCCCCCCCC(=O)OCC [Ethyl decanoate] is ____. 40

# iterate: CCCCCOC(=O)CCCCC [Amyl hexanoate] 2

# iterate: CCCCCCCC(=O)OCCCCC [Amyl octanoate] 60

# iterate: O=C(OCc1ccccc1)c1ccccc1 [Benzyl benzoate] 20
